assayedTarget: PRMT5/MEP50 complex (Homo sapiens (Human))
Sequence (O14744 whole entry): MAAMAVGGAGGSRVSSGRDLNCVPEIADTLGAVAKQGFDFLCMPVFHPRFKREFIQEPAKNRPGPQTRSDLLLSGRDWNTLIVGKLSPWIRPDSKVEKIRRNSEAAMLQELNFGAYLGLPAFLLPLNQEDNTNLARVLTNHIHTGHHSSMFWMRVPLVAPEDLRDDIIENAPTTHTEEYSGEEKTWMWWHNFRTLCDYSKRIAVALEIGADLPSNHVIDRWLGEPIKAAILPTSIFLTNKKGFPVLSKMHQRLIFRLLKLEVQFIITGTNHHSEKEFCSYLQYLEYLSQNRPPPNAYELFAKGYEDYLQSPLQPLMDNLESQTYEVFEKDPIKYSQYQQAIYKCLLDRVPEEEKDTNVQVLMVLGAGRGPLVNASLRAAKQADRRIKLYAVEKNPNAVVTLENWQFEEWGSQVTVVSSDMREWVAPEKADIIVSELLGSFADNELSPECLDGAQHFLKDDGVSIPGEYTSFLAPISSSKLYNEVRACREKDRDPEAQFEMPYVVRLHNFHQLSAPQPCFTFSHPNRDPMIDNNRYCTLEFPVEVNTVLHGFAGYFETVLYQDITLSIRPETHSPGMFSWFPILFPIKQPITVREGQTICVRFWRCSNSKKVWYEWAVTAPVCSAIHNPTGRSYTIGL
Sequence (Q9BQA1 whole entry partner): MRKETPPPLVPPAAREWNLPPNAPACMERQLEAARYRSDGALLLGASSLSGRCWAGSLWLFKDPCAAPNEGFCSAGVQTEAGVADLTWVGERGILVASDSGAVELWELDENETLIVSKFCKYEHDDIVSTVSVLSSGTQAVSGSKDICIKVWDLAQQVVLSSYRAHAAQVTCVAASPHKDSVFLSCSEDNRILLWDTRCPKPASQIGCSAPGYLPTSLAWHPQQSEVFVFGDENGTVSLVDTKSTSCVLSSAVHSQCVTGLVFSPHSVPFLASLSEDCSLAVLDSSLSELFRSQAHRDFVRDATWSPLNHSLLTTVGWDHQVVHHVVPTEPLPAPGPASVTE
methodDescription: Biochemical assay: PRMT5/MEP50 methylation of histone H2A with 3H-SAM, filter plate scintillation
testParameters: biochemical potency; read-out: PRTMT5/MEP50 IC50
Where a name gives a salt, the structure may show the parent alone.
Can you tell me pIC50 for the items I'm about to list?
Numbers only, as −log10 of the molar value.

>>> reportedmeasurement("CC(c1ccc(Cl)cc1)C1O[C@@H](n2ccc3c(N)ncnc32)[C@H](O)[C@@H]1O (stereo in doubt) [Example 6-C]")
8.16

Would you mind giving pIC50 for every compound in the list below?
1. CNc1ccc2ccc(CC[C@H]3C[C@@H](n4ccc5/c(=N/OC)nc[nH]c54)[C@H](O)[C@@H]3O)cc2n1 [Example 84-B]
2. N/N=c1/nc[nH]c2c1ccn2[C@@H]1C[C@H]([C@H](O)c2ccc(Cl)cc2)[C@@H](O)[C@H]1O [Example 25-B, hydrochloride]
3. C[C@@](O)(c1ccc(Cl)c(Cl)c1)[C@H]1C[C@@H](n2ccc3/c(=N\O)nc[nH]c32)[C@H](O)[C@@H]1O [Example 94-B]
4. O/N=c1/nc[nH]c2c1ccn2[C@@H]1C[C@H]([C@H](O)c2ccc(Cl)cc2)[C@@H](O)[C@H]1O [Example 50-B, hydrochloride]

stdout:
[8.57, 7.33, 8.47, 7.93]

meta.source: patent US11220524B2
